Reference for the values: ChEMBL document CHEMBL1201862

System: ACHN
Experiment: NCI tumour cell line growth inhibition, 48 h
Activity calls are given as the source filed them. Cut-off read from the data, not from the text of the source: active = GI50 up to about 1.1 µM and inactive = higher.
Measured GI50, listed per entry.

Below, 4 molecules whose answers are already recorded.
1) Cc1oc2nc(N(C)C)n3nnnc3c2c1C ... 61.9 µM (inactive)
2) CCOC(=O)c1ccc(N2C(=O)/C(=C/c3ccc(N(CCC#N)CCC#N)cc3)N=C2c2cc([N+](=O)[O-])ccc2Cl)cc1 ... > 100 µM (inactive)
3) CCCN(C(=O)c1c(Cl)nnc(Cl)c1C(=O)c1cc(Cl)nnc1Cl)c1cc(Cl)nnc1Cl ... 12.9 µM (inactive)
4) CCCCCCCCCCCCCC(=O)OC(/C=C/C(C)C)C(O)C(O)C(OC)C(=O)NC1CCCCN(C)C1=O (stereo unspecified) ... 4.31 µM (inactive)

## Task Query: GI50; subject: `O=C1c2ccccc2-c2ccc(/N=[N+](/[O-])c3ccc4c(c3)C(=O)c3ccccc3-4)cc21`
## Result > 100 µM (inactive)

## Task Query: GI50; subject: `Fc1cc(C2=C[C@H](c3ccc(Cl)cc3)NC(=S)N2)c(Cl)cc1Cl`
## Result 37.8 µM (inactive)
